# studySystem: T1, recombinant human DLL4 extracellular domain, C-terminally His-tagged (R&D Systems) (human, UniProt Q9NR61 25-522, biotinylated in the competition assays (sites not given))
# T1 construct: also called rhDLL4; hDLL4; not shown: C-terminal His tag
# T1 sequence (Q9NR61 25-522): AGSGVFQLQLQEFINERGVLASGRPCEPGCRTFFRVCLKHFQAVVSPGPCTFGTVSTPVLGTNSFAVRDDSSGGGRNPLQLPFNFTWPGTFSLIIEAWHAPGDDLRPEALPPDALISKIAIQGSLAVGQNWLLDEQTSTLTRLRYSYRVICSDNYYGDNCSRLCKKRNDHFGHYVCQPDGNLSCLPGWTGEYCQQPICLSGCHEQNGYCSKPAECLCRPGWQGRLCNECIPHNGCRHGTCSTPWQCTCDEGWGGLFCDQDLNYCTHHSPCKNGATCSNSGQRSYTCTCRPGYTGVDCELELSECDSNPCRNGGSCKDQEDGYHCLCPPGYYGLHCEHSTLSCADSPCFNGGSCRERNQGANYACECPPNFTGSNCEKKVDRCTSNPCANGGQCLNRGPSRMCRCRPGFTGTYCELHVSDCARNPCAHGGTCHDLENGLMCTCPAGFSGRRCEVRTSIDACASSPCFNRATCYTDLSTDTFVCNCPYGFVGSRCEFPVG
# assaySummary: periplasmic extract; hDLL4/hNotch1 AlphaScreen
measurementName: % inhibition (%)

[[record]]
binder = "DLLBII17B03 (VHH, also called DLLBII17B3; not shown: C-terminal c-myc and His6 tags) VHH: EVQLVESGGGLVQPGGSLRLSCAASGFTFENYALGWFRQAPGKEREWVSCISSSDGTTYYADSVKGRFTISRDNVKNTVYLQMNRLKPEDTAIYYCALSLGSSWCAYDYWGQGTQVTVSS"
measurementname = "% inhibition"
value = 77

[[record]]
binder = "DLLBII17G10 (VHH, not shown: C-terminal c-myc and His6 tags) VHH: EVQLVESGGGLVQAGGSLRLSCAASGSTFSSYAMGWYRHQAPGKQRELVAAISSDGSTHYADSVKGRFTISRDNAKNTMYLQMNSLKPEDTAVYYCNTKTFGSNWYDDYWGQGTQVTVSS"
measurementname = "% inhibition"
value = 82

[[record]]
binder = "DLLBII33C05 (VHH, also called DLLBII33C5; not shown: C-terminal c-myc and His6 tags) VHH: EVQLVESGGGLVQAGGSLRLSCAASGFTLDNYVIGWFRQAPGKEREEVSCISSSGGSTDYLDSVKGRFTISRDNAKNTVYLQMNSLKPEDTAVYYCAADSLPCYYDKMVYDYWGQGTQVTVSS"
measurementname = "% inhibition"
value = 75

[[record]]
binder = "DLLBII19F12 (VHH, not shown: C-terminal c-myc and His6 tags) VHH: EVQLVESGGGLVQAGGSLRLSCTASGSTFTSYAMGWYRQAPGKQRELVAAISSDDSTYYADCVKGRFTISRDNAKNTVYLQMNSLKPEDTAVYYCNAPHSDYDEEAPSDFGSWGQGTQVTVSS"
measurementname = "% inhibition"
value = 98

